Test system: RSV
Assay: RSV antiviral cellular assay
Assay type: cell-based, hRSV
Details: human respiratory syncytial virus; pEC50 = -log10 EC50 (M); RSV antiviral cellular assay; read-out: In vitro activity (pEC50) (converted)
Measured Endpoint: EC50 (M)

Worked cases, answers included:
Cc1ccc(CCCO)c(NCc2ccc3ncn(Cc4nc(C)ccc4O)c3c2)c1 :: 1.26e-08
Cc1ccc(O)c(Cn2c(NCCCN3CCOCC3)nc3ccccc32)n1 :: 1.58e-07
Cc1cccc(NCc2ccc3nc(NCCCN4CCOCC4)n(Cc4nc(C)ccc4O)c3c2)c1 :: 2.51e-09

(1) COc1ccc(C)nc1Cn1c(NCCCN2CCOCC2)nc2ccc(CNc3cc(C)ccc3CCCO)cc21
(2) Cc1ccc(CCCO)c(NCc2ccc3nc(N)n(Cc4nc(C)ccc4O)c3c2)c1
Kindly compare 1 with 2 and tell me which has the lower EC50 figure. Which one? Tell me its label.
2
(2: 3.16e-11 M, 1: 2.51e-09 M)
